The values you see were collected from ChEMBL document CHEMBL1133368.

test system: KB; assay: Growth inhibitory concentration of compound was measured against human nasopharyngeal carcinoma cell line (KB); format: functional, cell-based
measure-name: IC50 (nM)

>  <molecule>
COc1cccc2c1C(=O)c1c(O)c3c(c(O)c1C2=O)C[C@@](O)(C(=O)CO)C[C@@H]3O[C@H]1C[C@H](N)[C@H](O)[C@H](C)O1 [DOXORUBICIN]

>  <value-units>
nM

>  <IC50>
220

$$$$

(I) O=C1c2ccccc2C(=O)c2c1c(O)c(O)c1ncccc21
(II) CC1OC(Oc2c(O)c3c(c4cccnc24)C(=O)c2ccccc2C3=O)C(F)C(O)C1O (centres undefined)
## Input Parameter check: reported IC50 is higher for which label, I or II ? Write down the label attached to your selection.
## Output I

###

test system: PC-14; assay: Growth inhibitory concentration of compound was measured against human lung carcinoma cell line (PC-14); type: functional, cell-based
measure-name: pIC50
Give only the number. pIC50 is defined as minus log10 of concentration in molar units.

>  <compound>
CC1OC(Oc2c(O)c3c(c4cccnc24)C(=O)c2ccccc2C3=O)C(F)C(O)C1O (centres undefined)

>  <measure-name>
pIC50

>  <test-value>
6.15

$$$$

Alright, here's another compound for you.
## Input Field request: pIC50 | item: COc1cccc2c1C(=O)c1c(O)c3c(c(O)c1C2=O)C[C@@](O)(C(=O)CO)C[C@@H]3O[C@H]1C[C@H](N)[C@H](O)[C@H](C)O1
## Output 5.72
